ALP reference
organism: Rattus norvegicus; assay: Open TG-GATES - Regimen: Daily Repeat; format: toxicity, organism-based, Sprague-Dawley; design: regimen Daily Repeat, gender Male, age 6 weeks; conditions: in vivo, po, 300 mg/kg, 72 h, tissue Plasma, route gavage, dose level Middle, time 3 day
RECORDED METRIC: ALP (IU/L)

{"COMPOUND": "O=C(O)c1cccnc1 [NIACIN]", "NUMERIC VALUE": 1606.8}
{"COMPOUND": "O=C(N[C@H](CO)[C@H](O)c1ccc([N+](=O)[O-])cc1)C(Cl)Cl [CHLORAMPHENICOL]", "NUMERIC VALUE": 1601.8}
{"COMPOUND": "CC(C)(S)[C@@H](N)C(=O)O [PENICILLAMINE]", "NUMERIC VALUE": 1461.8}
{"COMPOUND": "CCN1CCCC1CNC(=O)c1cc(S(N)(=O)=O)ccc1OC (centres undefined) [SULPIRIDE]", "NUMERIC VALUE": 1582.2}

* * *

species on record: Rattus norvegicus; experiment: Open TG-GATES - Regimen: Single; format: toxicity, organism-based, Sprague-Dawley; design: regimen Single, gender Male, age 6 weeks; settings: in vivo, po, 0 mg/kg, 6 h, tissue Blood, route gavage, dose level Control
RECORDED METRIC: WBC (x10_2/uL)

{"COMPOUND": "O=C(N[C@H](CO)[C@H](O)c1ccc([N+](=O)[O-])cc1)C(Cl)Cl", "RECORDED METRIC": "WBC", "UNIT ABBREVIATION": "x10_2/uL", "NUMERIC VALUE": 60.2}
{"COMPOUND": "CC(C)C(=O)Nc1ccc([N+](=O)[O-])c(C(F)(F)F)c1 [FLUTAMIDE]", "RECORDED METRIC": "WBC", "UNIT ABBREVIATION": "x10_2/uL", "NUMERIC VALUE": 108.6}
{"COMPOUND": "CCC(C)(C)C(=O)O[C@H]1C[C@@H](C)C=C2C=C[C@H](C)[C@H](CC[C@@H]3C[C@@H](O)CC(=O)O3)[C@H]21", "RECORDED METRIC": "WBC", "UNIT ABBREVIATION": "x10_2/uL", "NUMERIC VALUE": 109.4}
{"COMPOUND": "CCc1oc2ccccc2c1C(=O)c1cc(I)c(O)c(I)c1", "RECORDED METRIC": "WBC", "UNIT ABBREVIATION": "x10_2/uL", "NUMERIC VALUE": 115.5}

* * *

species: Rattus norvegicus; test: Open TG-GATES - Regimen: Single; assay type: toxicity, organism-based, Sprague-Dawley; set-up: regimen Single, gender Male, age 6 weeks; conditions: in vivo, po, 0 mg/kg, 3 h, tissue Blood, route gavage, dose level Control
Measured Ht values are reported for all entries that follow.
RECORDED METRIC: Ht (%)

{"MOLECULE": "CC(C)C(=O)Nc1ccc([N+](=O)[O-])c(C(F)(F)F)c1 [FLUTAMIDE]", "NUMERIC VALUE": 39}
{"MOLECULE": "C[C@]12CCC(=O)C=C1CC[C@@H]1[C@@H]2CC[C@@]2(C)[C@H]1CC[C@]2(C)O [METHYLTESTOSTERONE]", "NUMERIC VALUE": 39}
{"MOLECULE": "CCC(C)(C)C(=O)O[C@H]1C[C@@H](C)C=C2C=C[C@H](C)[C@H](CC[C@@H]3C[C@@H](O)CC(=O)O3)[C@H]21 [SIMVASTATIN]", "NUMERIC VALUE": 39.1}
{"MOLECULE": "O=C(O)c1cccnc1 [NIACIN]", "NUMERIC VALUE": 40.1}

* * *

species on record: Rattus norvegicus; assay: Open TG-GATES - Regimen: Daily Repeat; type: toxicity, organism-based, Sprague-Dawley; set-up: regimen Daily Repeat, gender Male, age 6 weeks; conditions: in vivo, po, 1000 mg/kg, […], tissue Plasma, route gavage, dose level High, time 28 day
Listed here: items and their measured Na.
RECORDED METRIC: Na (meq/L)

{"MOLECULE": "O=C(N[C@H](CO)[C@H](O)c1ccc([N+](=O)[O-])cc1)C(Cl)Cl [CHLORAMPHENICOL]", "RECORDED METRIC": "Na", "NUMERIC VALUE": 145.2}
{"MOLECULE": "CC(C)(S)[C@@H](N)C(=O)O [PENICILLAMINE]", "RECORDED METRIC": "Na", "NUMERIC VALUE": 144}
{"MOLECULE": "O=C(O)c1cccnc1 [NIACIN]", "RECORDED METRIC": "Na", "NUMERIC VALUE": 143.4}
{"MOLECULE": "CCN1CCCC1CNC(=O)c1cc(S(N)(=O)=O)ccc1OC (centres undefined) [SULPIRIDE]", "RECORDED METRIC": "Na", "NUMERIC VALUE": 141.8}

* * *

Let's look at some compounds and their measured Eos.
organism: Rattus norvegicus; assay: Open TG-GATES - Regimen: Daily Repeat; type: toxicity, organism-based, Sprague-Dawley; set-up: regimen Daily Repeat, gender Male, age 6 weeks; details: in vivo, po, 1000 mg/kg, 72 h, tissue Blood, route gavage, dose level High, time 3 day

{"COMPOUND": "O=C(N[C@H](CO)[C@H](O)c1ccc([N+](=O)[O-])cc1)C(Cl)Cl", "Eos, %": 1.4}
{"COMPOUND": "O=C(O)c1cccnc1", "Eos, %": 0.8}
{"COMPOUND": "CCN1CCCC1CNC(=O)c1cc(S(N)(=O)=O)ccc1OC (centres undefined) [SULPIRIDE]", "Eos, %": 1.4}
{"COMPOUND": "CC(C)(S)[C@@H](N)C(=O)O", "Eos, %": 1.2}

* * *

species on record: Rattus norvegicus; experiment: Open TG-GATES - Regimen: Daily Repeat; format: toxicity, organism-based, Sprague-Dawley; design: regimen Daily Repeat, gender Male, age 6 weeks; conditions: in vivo, po, 100 mg/kg, […], tissue Blood, route gavage, dose level Low, time 14 day

{"COMPOUND": "O=C(O)c1cccnc1", "Plat / x10_4/uL": 107.6}
{"COMPOUND": "O=C(N[C@H](CO)[C@H](O)c1ccc([N+](=O)[O-])cc1)C(Cl)Cl", "Plat / x10_4/uL": 121.6}
{"COMPOUND": "CC(C)(S)[C@@H](N)C(=O)O", "Plat / x10_4/uL": 111.4}
{"COMPOUND": "CCN1CCCC1CNC(=O)c1cc(S(N)(=O)=O)ccc1OC (centres undefined) [SULPIRIDE]", "Plat / x10_4/uL": 121.3}

* * *

organism: Rattus norvegicus; test: Open TG-GATES - Regimen: Daily Repeat; type: toxicity, organism-based, Sprague-Dawley; design: regimen Daily Repeat, gender Male, age 6 weeks; conditions: in vivo, po, 300 mg/kg, […], tissue Plasma, route gavage, dose level Middle, time 14 day

{"COMPOUND": "CCN1CCCC1CNC(=O)c1cc(S(N)(=O)=O)ccc1OC (centres undefined) [SULPIRIDE]", "UNIT ABBREVIATION": "IU/L", "AST": 62.8}
{"COMPOUND": "CC(C)(S)[C@@H](N)C(=O)O", "UNIT ABBREVIATION": "IU/L", "AST": 64.2}
{"COMPOUND": "O=C(O)c1cccnc1", "UNIT ABBREVIATION": "IU/L", "AST": 68.8}
{"COMPOUND": "O=C(N[C@H](CO)[C@H](O)c1ccc([N+](=O)[O-])cc1)C(Cl)Cl", "UNIT ABBREVIATION": "IU/L", "AST": 75.2}

* * *

species on record: Rattus norvegicus; assay: Open TG-GATES - Regimen: Daily Repeat; format: toxicity, organism-based, Sprague-Dawley; parameters: regimen Daily Repeat, gender Male, age 6 weeks; settings: in vivo, po, 100 mg/kg, […], tissue Plasma, route gavage, dose level Low, time 14 day
# maps each entry to its DBIL

{"COMPOUND": "CCN1CCCC1CNC(=O)c1cc(S(N)(=O)=O)ccc1OC (centres undefined) [SULPIRIDE]", "DBIL (mg/dL)": 0.015}
{"COMPOUND": "CC(C)(S)[C@@H](N)C(=O)O", "DBIL (mg/dL)": 0.012}
{"COMPOUND": "O=C(N[C@H](CO)[C@H](O)c1ccc([N+](=O)[O-])cc1)C(Cl)Cl", "DBIL (mg/dL)": 0.022}
{"COMPOUND": "O=C(O)c1cccnc1", "DBIL (mg/dL)": 0}
